Assay: The drug is tested on Bacteroides ovatus strain: ATCC8483 for biotransformation. The drug concentrations were measured before and after a 12-h incubation by liquid-chromatography-coupled mass spectrometry (LC–MS)
Details: 2 µM
recorded-endpoint: Bacterial Biotransformation

Solved cases below.
* CC(C)c1c(CN(C)C(C)Cc2ccccc2)n(C)n(-c2ccccc2)c1=O (stereo unspecified) | Compound metabolized
* OCCOCCN1CCN(C2=Nc3ccccc3Sc3ccccc32)CC1 | Compound NOT metabolized
* Cc1ccc(/C(=C\CN2CCCC2)c2ccccn2)cc1 | Compound NOT metabolized
* Fc1ccc([C@@H]2CCNC[C@H]2COc2ccc3c(c2)OCO3)cc1 | Compound NOT metabolized
* CN1C[C@H](C(=O)N[C@]2(C)O[C@@]3(O)[C@@H]4CCCN4C(=O)[C@H](Cc4ccccc4)N3C2=O)C=C2c3cccc4[nH]cc(c34)C[C@H]21.CN1C[C@H](C(=O)N[C@]2(C)O[C@@]3(O)[C@@H]4CCCN4C(=O)[C@H](Cc4ccccc4)N3C2=O)C=C2c3cccc4[nH]cc(c34)C[C@H]21.O=C(O)C(O)C(O)C(=O)O [ERGOTAMINE TARTRATE] | Compound metabolized
* N#Cc1ccc2c(c1)N(CCCN1CCC(O)CC1)c1ccccc1S2 | Compound NOT metabolized
* CC[C@H](C)C(=O)O[C@H]1C[C@@H](C)C=C2C=C[C@H](C)[C@H](CC[C@@H]3C[C@@H](O)CC(=O)O3)[C@H]21 | Compound NOT metabolized
* Cc1ccnc2c1NC(=O)c1cccnc1N2C1CC1 | Compound NOT metabolized
* CN1CCC(OC(c2ccccc2)c2ccccc2)CC1 | Compound NOT metabolized
* CCN(CC)CCOCCOC(=O)C1(c2ccccc2)CCCC1.O=C(O)CC(O)(CC(=O)O)C(=O)O [CARBETAPENTANE CITRATE] | Compound metabolized

Exam item: // returns reported Bacterial Biotransformation for input `CC(=O)Oc1ccc(C(c2ccc(OC(C)=O)cc2)c2ccccn2)cc1`
Marked response: Compound metabolized

Exam item: Again, but for `CC(C)(C#N)c1cc(Cn2cncn2)cc(C(C)(C)C#N)c1`
Marked response: Compound metabolized

Exam item: Also check `CCCc1nc2c(C)cc(-c3nc4ccccc4n3C)cc2n1Cc1ccc(-c2ccccc2C(=O)O)cc1`
Marked response: Compound metabolized

Exam item: Same lookup for `CN1CCN(C2=Nc3cc(Cl)ccc3Nc3ccccc32)CC1` , please.
Marked response: Compound NOT metabolized

Exam item: Now try `CCOC(=O)[C@H](CCc1ccccc1)N[C@H]1CCc2ccccc2N(CC(=O)O)C1=O` .
Marked response: Compound metabolized

Exam item: Check CC(NC(C)(C)C)C(=O)c1cccc(Cl)c1 (stereo unspecified) too.
Marked response: Compound metabolized
